test system: Staphylococcus aureus; experiment: Serial dilution-tube method, MIC; format: cell-based; conditions: Staphylococcus aureus; brain heart infusion broth; read-out: Minimum Inhibitory Concentration
measure: MIC

CC1C(=O)C2CC(=O)N2C1C(=O)OCOC(=O)C(C)(C)C (stereo not shown) [H H POM CH3 O I] has a reported MIC of > 200 µg/mL

Note to self: MIC recorded for CC(=O)OC1C(C)C(C(=O)OCOC(=O)C(C)(C)C)N2C(=O)C(NC(=O)COc3ccccc3)C12 (stereo not shown) [PMA H POM CH3 H OAc I] was > 200 µg/mL

// MIC value for CC1C(O)C2CC(=O)N2C1C(=O)OCOC(=O)C(C)(C)C (stereo not shown) [H H POM CH3 H OH I] : > 200 µg/mL

The compound identified as CC1=C(C(=O)OCOC(=O)C(C)(C)C)N2C(=O)CC2C1=O (stereo not shown) [H H POM CH3 O II] registered its MIC at > 200 µg/mL

Note to self: MIC recorded for COC1(NC(=O)COc2ccccc2)C(=O)N2C(C(=O)OCOC(=O)C(C)(C)C)C(C)C(=O)C21 (stereo not shown) [PMA OMe POM CH3 O I] was > 200 µg/mL

Documented MIC of CC(=O)OC1C(C)C(C(=O)O)N2C(=O)CC12 (stereo not shown) [H H H CH3 H OAc I] : > 200 µg/mL

Lab note: COC1(NC(=O)COc2ccccc2)C(=O)N2C(C(=O)OCOC(=O)C(C)(C)C)C(C)C(O)C21 (stereo not shown) [PMA OMe POM CH3 H OH I] gave MIC of > 200 µg/mL

Value source: patent US4348264A
